Here the recorded LD50 is given for each entry.
- measurement description: Lethal dose when given intraperitoneally in mice
- Assay type: toxicity, organism-based
- condition: mouse, in vivo, ip

>  <compound>
COCCN(CCOC)c1nn2c(-c3ccc(OC(C)C)cc3)nnc2c2ccccc12

>  <LD50, mg/kg>
600

$$$$
>  <compound>
CCOc1c(Br)cc(Br)cc1-c1nnc2c3ccccc3c(N3CCCC3)nn12

>  <LD50, mg/kg>
600

$$$$
>  <compound>
Brc1ccccc1-c1nnc2c3ccccc3c(N3CCCC3)nn12

>  <LD50, mg/kg>
600

$$$$
>  <compound>
COCCNc1nn2c(-c3ccc(OC)cc3)nnc2c2ccccc12

>  <LD50, mg/kg>
200

$$$$
>  <compound>
COc1ccc(-c2nnc3c4ccccc4c(N(C)CC(C)O)nn23)cc1 (stereo not given)

>  <LD50, mg/kg>
300

$$$$
>  <compound>
COCCN(CCOC)c1nn2c(-c3ccc(OC)cc3)nnc2c2ccccc12

>  <LD50, mg/kg>
300

$$$$
>  <compound>
COCCN(CCOC)c1nn2c(-c3ccc(OC)c(C)c3)nnc2c2ccccc12

>  <LD50, mg/kg>
400

$$$$
>  <compound>
c1ccc(-c2ccc(-c3nnc4c5ccccc5c(N5CCCC5)nn34)cc2)cc1

>  <LD50, mg/kg>
400

$$$$
>  <compound>
COc1ccc(-c2nnc3c4ccccc4c(N4CCCC4)nn23)cc1

>  <LD50, mg/kg>
600

$$$$
>  <compound>
CCCCCOc1ccc(-c2nnc3c4ccccc4c(N4CCCC4)nn23)cc1OC

>  <LD50, mg/kg>
200

$$$$

----------
Here the recorded Ratio is given for each entry.
- measurement target: GABA-A receptor; anion channel (Rattus norvegicus) (UniProt O09028+P15431+P18506+P18508+P19969+P20236+P23574+P23576+P28471+P28473+P30191+P62813+P63079+P63138+Q91ZM7+Q9ES14)
- measurement description: Relative inhibition of [3H]diazepam binding to GABA-A receptor of rat forebrain in the presence and absence of GABA(10e-4M)
value kind: Ratio

>  <cpd smiles>
CNc1nn2c(-c3ccccc3)nnc2c2ccccc12

>  <result>
1

$$$$
>  <cpd smiles>
COCCN(CCOC)c1nn2c(-c3ccccc3)nnc2c2ccccc12

>  <result>
1.6

$$$$
>  <cpd smiles>
CN(C)c1nn2c(-c3ccccc3)nnc2c2ccccc12

>  <result>
1.1

$$$$
>  <cpd smiles>
CCNc1nn2c(-c3ccccc3)nnc2c2ccccc12

>  <result>
0.9

$$$$
>  <cpd smiles>
CCN(CC)c1nn2c(-c3ccccc3)nnc2c2ccccc12

>  <result>
0.9

$$$$

----------
Here the recorded pKi is given for each entry.
- measurement target: GABA-A receptor; anion channel
- measurement description: Inhibition of [3H]diazepam binding to GABA-A central benzodiazepine receptor of rat brain homogenate
pKi: −log10 of the molar value.

>  <cpd smiles>
COc1ccc(-c2nnc3c4ccccc4c(N4CCCC4)nn23)cc1

>  <measurement target>
GABA-A receptor; anion channel

>  <limit qualifier>
=

>  <pKi>
8.41

$$$$
>  <cpd smiles>
c1ccc(-c2nnc3c4ccccc4c(N4CCOCC4)nn23)cc1

>  <measurement target>
GABA-A receptor; anion channel

>  <limit qualifier>
=

>  <pKi>
7.85

$$$$
>  <cpd smiles>
CN(C)c1nn2c(-c3ccccc3)nnc2c2ccccc12

>  <measurement target>
GABA-A receptor; anion channel

>  <limit qualifier>
=

>  <pKi>
7.68

$$$$
>  <cpd smiles>
Cc1ccc(-c2nnc3c4ccccc4c(N4CCCC4)nn23)cc1C

>  <measurement target>
GABA-A receptor; anion channel

>  <limit qualifier>
=

>  <pKi>
5.71

$$$$
>  <cpd smiles>
COCCN(CCOC)c1nn2c(-c3cccc(Cl)c3)nnc2c2ccccc12

>  <measurement target>
GABA-A receptor; anion channel

>  <limit qualifier>
=

>  <pKi>
6.51

$$$$
>  <cpd smiles>
COc1ccc(-c2nnc3c4ccccc4c(N4CCCC4)nn23)cc1OC

>  <measurement target>
GABA-A receptor; anion channel

>  <limit qualifier>
<

>  <pKi>
5.52

$$$$
>  <cpd smiles>
O=C(O)c1ccc(-c2nnc3c4ccccc4c(N4CCCC4)nn23)cc1

>  <measurement target>
GABA-A receptor; anion channel

>  <limit qualifier>
<

>  <pKi>
5.52

$$$$
>  <cpd smiles>
CCCCNc1nn2c(-c3ccccc3)nnc2c2ccccc12

>  <measurement target>
GABA-A receptor; anion channel

>  <limit qualifier>
=

>  <pKi>
6.61

$$$$
>  <cpd smiles>
COCCN(CCOC)c1nn2c(-c3cccc(C)c3)nnc2c2ccccc12

>  <measurement target>
GABA-A receptor; anion channel

>  <limit qualifier>
=

>  <pKi>
6.74

$$$$
>  <cpd smiles>
O=[N+]([O-])c1cc(-c2nnc3c4ccccc4c(N4CCCC4)nn23)ccc1Cl

>  <measurement target>
GABA-A receptor; anion channel

>  <limit qualifier>
=

>  <pKi>
6.04

$$$$
>  <cpd smiles>
Nc1nn2c(-c3ccccc3)nnc2c2ccccc12

>  <measurement target>
GABA-A receptor; anion channel

>  <limit qualifier>
=

>  <pKi>
6.61

$$$$
>  <cpd smiles>
COCCN(CCOC)c1nn2c(-c3ccc(O)cc3)nnc2c2ccccc12

>  <measurement target>
GABA-A receptor; anion channel

>  <limit qualifier>
=

>  <pKi>
8.39

$$$$
>  <cpd smiles>
c1ccc(-c2ccc(-c3nnc4c5ccccc5c(N5CCCC5)nn34)cc2)cc1

>  <measurement target>
GABA-A receptor; anion channel

>  <limit qualifier>
<

>  <pKi>
5.52

$$$$
>  <cpd smiles>
CN(C)c1ccc(-c2nnc3c4ccccc4c(N4CCCC4)nn23)cc1

>  <measurement target>
GABA-A receptor; anion channel

>  <limit qualifier>
=

>  <pKi>
5.76

$$$$
>  <cpd smiles>
COCCN(CCOC)c1nn2c(-c3ccc(OC)c(C)c3)nnc2c2ccccc12

>  <measurement target>
GABA-A receptor; anion channel

>  <limit qualifier>
=

>  <pKi>
5.74

$$$$
>  <cpd smiles>
CN1CCN(c2nn3c(-c4ccccc4)nnc3c3ccccc23)CC1

>  <measurement target>
GABA-A receptor; anion channel

>  <limit qualifier>
=

>  <pKi>
7.42

$$$$
>  <cpd smiles>
NC(=O)c1ccc(-c2nnc3c4ccccc4c(N4CCCC4)nn23)cc1

>  <measurement target>
GABA-A receptor; anion channel

>  <limit qualifier>
=

>  <pKi>
6.95

$$$$
>  <cpd smiles>
c1ccc(-c2nnc3c4ccccc4c(N4CCCC4)nn23)cc1

>  <measurement target>
GABA-A receptor; anion channel

>  <limit qualifier>
=

>  <pKi>
7.81

$$$$
>  <cpd smiles>
Oc1ccc(-c2nnc3c4ccccc4c(N4CCCC4)nn23)cc1

>  <measurement target>
GABA-A receptor; anion channel

>  <limit qualifier>
=

>  <pKi>
7.96

$$$$
>  <cpd smiles>
COCCN(CCOC)c1nn2c(-c3ccc(Cl)cc3)nnc2c2ccccc12

>  <measurement target>
GABA-A receptor; anion channel

>  <limit qualifier>
=

>  <pKi>
7.77

$$$$
>  <cpd smiles>
COCCNc1nn2c(-c3ccc(OC)cc3)nnc2c2ccccc12

>  <measurement target>
GABA-A receptor; anion channel

>  <limit qualifier>
=

>  <pKi>
8.27

$$$$
>  <cpd smiles>
CCOc1c(Br)cc(Br)cc1-c1nnc2c3ccccc3c(N3CCCC3)nn12

>  <measurement target>
GABA-A receptor; anion channel

>  <limit qualifier>
<

>  <pKi>
5.52

$$$$
>  <cpd smiles>
CC(C)Nc1nn2c(-c3ccccc3)nnc2c2ccccc12

>  <measurement target>
GABA-A receptor; anion channel

>  <limit qualifier>
=

>  <pKi>
6.51

$$$$

----------
- Test system: Mus musculus
- measurement description: Inhibition of Anti-pentylenetetrazole-induced convulsions in mice following i.p. administration.
- Type: functional
- condition: ip
value kind: ED50

>  <cpd smiles>
FC(F)(F)c1cccc(-c2nnc3c4ccccc4c(N4CCCC4)nn23)c1

>  <measurement target>
Mus musculus

>  <result>
≥ 100 mg/kg

$$$$
>  <cpd smiles>
COCCN(CCOC)c1nn2c(-c3ccc(F)cc3)nnc2c2ccccc12

>  <measurement target>
Mus musculus

>  <result>
60.1 mg/kg

$$$$
>  <cpd smiles>
CC(C)(C)Nc1nn2c(-c3ccccc3)nnc2c2ccccc12

>  <measurement target>
Mus musculus

>  <result>
≥ 50 mg/kg

$$$$
>  <cpd smiles>
COCCNc1nn2c(-c3ccc(OC)cc3)nnc2c2ccccc12

>  <measurement target>
Mus musculus

>  <result>
≥ 50 mg/kg

$$$$
>  <cpd smiles>
CCN(C)c1nn2c(-c3ccccc3)nnc2c2ccccc12

>  <measurement target>
Mus musculus

>  <result>
≥ 50 mg/kg

$$$$
>  <cpd smiles>
c1ccc(-c2nnc3c4ccccc4c(N4CCOCC4)nn23)cc1

>  <measurement target>
Mus musculus

>  <result>
≥ 100 mg/kg

$$$$
>  <cpd smiles>
NC(=O)c1ccc(-c2nnc3c4ccccc4c(N4CCCC4)nn23)cc1

>  <measurement target>
Mus musculus

>  <result>
≥ 50 mg/kg

$$$$
>  <cpd smiles>
CN(C)c1ccc(-c2nnc3c4ccccc4c(N4CCCC4)nn23)cc1

>  <measurement target>
Mus musculus

>  <result>
≥ 75 mg/kg

$$$$
>  <cpd smiles>
CCCCNc1nn2c(-c3ccccc3)nnc2c2ccccc12

>  <measurement target>
Mus musculus

>  <result>
≥ 100 mg/kg

$$$$
>  <cpd smiles>
Nc1nn2c(-c3ccccc3)nnc2c2ccccc12

>  <measurement target>
Mus musculus

>  <result>
≥ 100 mg/kg

$$$$
>  <cpd smiles>
c1ccc(-c2nnc3c4ccccc4c(N4CCCCC4)nn23)cc1

>  <measurement target>
Mus musculus

>  <result>
≥ 100 mg/kg

$$$$
>  <cpd smiles>
COCCN(CCOC)c1nn2c(-c3ccc(N(C)C)cc3)nnc2c2ccccc12

>  <measurement target>
Mus musculus

>  <result>
20 mg/kg

$$$$
>  <cpd smiles>
COCCN(CCOC)c1nn2c(-c3ccc(C)cc3)nnc2c2ccccc12

>  <measurement target>
Mus musculus

>  <result>
20.4 mg/kg

$$$$
>  <cpd smiles>
N#Cc1ccc(-c2nnc3c4ccccc4c(N4CCCC4)nn23)cc1

>  <measurement target>
Mus musculus

>  <result>
≥ 100 mg/kg

$$$$
>  <cpd smiles>
CC(=O)Nc1ccc(-c2nnc3c4ccccc4c(N4CCCC4)nn23)cc1

>  <measurement target>
Mus musculus

>  <result>
≥ 100 mg/kg

$$$$
>  <cpd smiles>
COCCN(CCOC)c1nn2c(-c3cccc(Cl)c3)nnc2c2ccccc12

>  <measurement target>
Mus musculus

>  <result>
≥ 100 mg/kg

$$$$
